- experimental_system: Rat recombinant α2,3(O)ST (Rattus norvegicus)
- Construct: purchased Calbiochem
- Sequence (Q11205 whole entry): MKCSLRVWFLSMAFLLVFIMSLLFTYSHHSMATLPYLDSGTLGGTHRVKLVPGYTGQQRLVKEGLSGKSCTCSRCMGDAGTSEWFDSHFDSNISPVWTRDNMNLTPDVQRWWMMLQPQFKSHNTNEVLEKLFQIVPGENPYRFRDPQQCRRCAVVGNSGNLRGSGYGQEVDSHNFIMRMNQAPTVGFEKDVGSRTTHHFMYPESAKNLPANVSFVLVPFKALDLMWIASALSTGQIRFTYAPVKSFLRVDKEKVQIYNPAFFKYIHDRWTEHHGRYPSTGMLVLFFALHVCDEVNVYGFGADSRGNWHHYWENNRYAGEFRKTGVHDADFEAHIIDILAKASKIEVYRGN
- experiment_summary: Sialyltransferase assay with cloned α2,3(O)ST
- Format: biochemical
- protocol_conditions: Table II; acceptor 7.5 mM; relative to Galβ1,3GalNAcα-O-Bn
- Experimental: Rat recombinant α2,3(O)ST, α2,3(N)ST and α2,6(N)ST were purchased from Calbiochem and stored at either −20° C. or −70° C. as recommended by the supplier. […] 10 μl aliquots of the diluted enzymes were used in the assays run in duplicate. […] The radioactive products from benzylglycosides and monosialylated benzylglycosides were measured by hydrophobic chromatography on Sep-Pak C18 cartridge (Waters, Milford, Mass.) and eluting the product with 3.0 ml methanol (30). […]
// values below are reported Sialyltransferase activity (%) Cloned α2,3(O)ST
observable: Sialyltransferase activity (%) Cloned α2,3(O)ST

compound	experimental_system	reported_result
CC(=O)N[C@H]1[C@@H](OCc2ccccc2)O[C@H](CO)[C@H](O)[C@@H]1O[C@@H]1O[C@H](CO)[C@H](F)[C@H](O)[C@H]1O [4-F-Galβ1,3GalNAcα-O-Bn]	Rat recombinant α2,3(O)ST (Rattus norvegicus)	102.3^10%
CO[C@@H]1[C@H](O)[C@@H](O)[C@H](O[C@H]2[C@@H](O)[C@@H](CO)O[C@H](OCc3ccccc3)[C@@H]2NC(C)=O)O[C@@H]1CO [4-O-MeGalβ1,3GalNAcα-O-Bn]	Rat recombinant α2,3(O)ST (Rattus norvegicus)	105.0^9%
CO[C@H]1[C@@H](O)[C@@H](CO)O[C@@H](O[C@H]2[C@@H](O)[C@@H](CO)O[C@H](OCc3ccccc3)[C@@H]2NC(C)=O)[C@@H]1O [3-O-MeGalβ1,3GalNAcα-O-Bn]	Rat recombinant α2,3(O)ST (Rattus norvegicus)	101.8%
COC[C@H]1O[C@H](OCc2ccccc2)[C@H](NC(C)=O)[C@@H](O[C@@H]2O[C@H](CO)[C@H](O)[C@H](O)[C@H]2O)[C@H]1O [Galβ1,3(6-O-Me)GalNAcα-O-Bn]	Rat recombinant α2,3(O)ST (Rattus norvegicus)	107.3^11%
CC(=O)N[C@H]1[C@@H](OCc2ccccc2)O[C@H](CO)[C@H](O)[C@@H]1O[C@@H]1O[C@H](CO)[C@H](O)[C@H](O)[C@H]1O [Galβ1,3GalNAcα-O-Bn]	Rat recombinant α2,3(O)ST (Rattus norvegicus)	100.0^8%

* * *

// values below are reported Sialyltransferase activity (%) Cloned α2,6(N)ST
- experimental_system: Rat recombinant α2,6(N)ST (Rattus norvegicus)
- Construct: purchased Calbiochem
- experiment_summary: Sialyltransferase assay with cloned α2,6(N)ST
- Assay type: biochemical
- protocol_conditions: Table I; acceptor 7.5 mM; 100% = 43500 CPM (Galβ1,4GlcNAcβ-O—Al)
observable: Sialyltransferase activity (%) Cloned α2,6(N)ST

molecule	reported_result
C=CCOC1OC(CO)C(O)C(OC2OC(CO)C(O)C(O)C2O)C1NC(C)=O (centres unmarked)	3.0
CO[C@H]1O[C@H](CO[C@@H]2O[C@H](COS(=O)(=O)O)[C@@H](O[C@@H]3O[C@H](CO)[C@H](O)[C@H](O)[C@H]3O)[C@H](O)[C@H]2NC(C)=O)[C@H](O)[C@H](O[C@@H]2O[C@H](CO)[C@H](O)[C@H](O[C@]3(C(=O)O)C[C@H](O)[C@@H](NC(C)=O)[C@H]([C@H](O)[C@H](O)CO)O3)[C@H]2O)[C@H]1NC(C)=O	0.9
CC(=O)N[C@H]1[C@H](OC[C@H]2O[C@H](OCc3ccccc3)[C@H](NC(C)=O)[C@@H](O[C@@H]3O[C@H](CO)[C@H](O)[C@H](O)[C@H]3O)[C@H]2O)O[C@H](CO)[C@@H](O[C@@H]2O[C@H](CO)[C@H](O)[C@H](O)[C@H]2O)[C@@H]1O	93.3
CO[C@H]1[C@H](O[C@H]2[C@H](O)[C@@H](CO)O[C@@H](OCc3ccccc3)[C@@H]2NC(C)=O)O[C@H](CO)[C@H](O)[C@@H]1O	0
CO[C@H]1[C@H](O[C@H]2[C@H](O)[C@@H](CO)OC(O)[C@@H]2NC(C)=O)O[C@H](CO)[C@H](O)[C@@H]1O (some centres unmarked)	3.7

* * *

- experimental_system: Rat recombinant α2,6(N)ST (Rattus norvegicus)
- Construct: purchased Calbiochem
- Sequence (P13721 1-403): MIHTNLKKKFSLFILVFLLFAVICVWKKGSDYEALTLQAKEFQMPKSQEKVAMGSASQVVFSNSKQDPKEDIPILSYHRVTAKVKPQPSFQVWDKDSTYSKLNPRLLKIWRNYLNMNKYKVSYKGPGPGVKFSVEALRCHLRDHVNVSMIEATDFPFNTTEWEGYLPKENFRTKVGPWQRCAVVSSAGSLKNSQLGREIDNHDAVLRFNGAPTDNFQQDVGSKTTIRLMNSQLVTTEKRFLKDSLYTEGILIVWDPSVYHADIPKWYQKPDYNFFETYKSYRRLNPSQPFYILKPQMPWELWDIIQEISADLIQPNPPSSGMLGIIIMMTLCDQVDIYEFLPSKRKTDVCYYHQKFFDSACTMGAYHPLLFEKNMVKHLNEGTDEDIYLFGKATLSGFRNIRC
- experiment_summary: Sialyltransferase assay with cloned α2,6(N)ST
- Format: biochemical
- protocol_conditions: Table III; compound 7.5 mM; 100% = 30440 CPM (Galβ1,4GlcNAcβ1,6(3-O-MeGalβ1,3)GalNAcα-O-Bn)
observable: Cloned Sialyltransferase Activities α2,6(N)ST % (%)

structure	experimental_system	unit	reported_result
CO[C@@H]1[C@H](O)[C@@H](O)[C@H](O[C@H]2[C@@H](O)[C@@H](CO[C@@H]3O[C@H](CO)[C@@H](O[C@@H]4O[C@H](CO)[C@H](O)[C@H](O)[C@H]4O)[C@H](O)[C@H]3NC(C)=O)O[C@H](OCc3ccccc3)[C@@H]2NC(C)=O)O[C@@H]1CO	Rat recombinant α2,6(N)ST (Rattus norvegicus)	%	101.3
CO[C@@H]1[C@H](O)[C@@H](O)[C@H](O[C@H]2[C@H](O)[C@@H](NC(C)=O)[C@H](OC[C@H]3O[C@H](OCc4ccccc4)[C@H](NC(C)=O)[C@@H](O[C@@H]4O[C@H](CO)[C@H](O)[C@H](O)[C@H]4O)[C@H]3O)O[C@@H]2CO)O[C@@H]1CO	Rat recombinant α2,6(N)ST (Rattus norvegicus)	%	12.6
CC(=O)N[C@H]1[C@H](OC[C@H]2O[C@H](OCc3ccccc3)[C@H](NC(C)=O)[C@@H](O[C@@H]3O[C@H](CO)[C@H](O)[C@H](O)[C@H]3O)[C@H]2O)O[C@H](CO)[C@@H](O[C@@H]2O[C@H](CO)[C@H](F)[C@H](O)[C@H]2O)[C@@H]1O	Rat recombinant α2,6(N)ST (Rattus norvegicus)	%	2.7
CO[C@H]1[C@@H](O)[C@@H](CO)O[C@@H](O[C@H]2[C@H](O)[C@@H](NC(C)=O)[C@H](OC[C@H]3O[C@H](OCc4ccccc4)[C@H](NC(C)=O)[C@@H](O[C@@H]4O[C@H](CO)[C@H](O)[C@H](O)[C@H]4O)[C@H]3O)O[C@@H]2CO)[C@@H]1O	Rat recombinant α2,6(N)ST (Rattus norvegicus)	%	6.4
CC(=O)N[C@H]1[C@H](OC[C@H]2O[C@H](OCc3ccccc3)[C@H](NC(C)=O)[C@@H](O[C@@H]3O[C@H](CO)[C@H](O)[C@H](O)[C@H]3O)[C@H]2O)O[C@H](CO)[C@@H](O[C@@H]2O[C@H](CO)[C@H](O)[C@H](F)[C@H]2O)[C@@H]1O	Rat recombinant α2,6(N)ST (Rattus norvegicus)	%	11.3

* * *

- experimental_system: Rat recombinant α2,3(O)ST (Rattus norvegicus)
- Construct: purchased Calbiochem
- experiment_summary: Sialyltransferase assay with cloned α2,3(O)ST
- Assay type: biochemical
- protocol_conditions: Table I; acceptor 7.5 mM; 100% = 40560 CPM (3-O-MeGalβ1,4GlcNAcβ1,6(Galβ1,3)GalNAcα-O-Bn)
observable: Sialyltransferase activity (%) Cloned α2,3(O)ST

compound	experimental_system	reported_result
CO[C@H]1O[C@H](CO[C@@H]2O[C@H](CO)[C@@H](O[C@@H]3O[C@H](CO)[C@H](O)[C@H](O)[C@H]3NC(C)=O)[C@H](O[C@@H]3O[C@@H](C)[C@@H](O)[C@@H](O)[C@@H]3O)[C@H]2NC(C)=O)[C@H](O)[C@H](O[C@@H]2O[C@H](CO)[C@H](O)[C@H](O)[C@H]2O)[C@H]1NC(C)=O	Rat recombinant α2,3(O)ST (Rattus norvegicus)	134.9
CO[C@H]1[C@@H](O)[C@@H](CO)O[C@@H](O[C@H]2[C@H](O)[C@@H](NC(C)=O)C(O)O[C@@H]2CO)[C@@H]1O (stereo partly drawn)	Rat recombinant α2,3(O)ST (Rattus norvegicus)	3.6
COC1OC(COC2OC(COS(=O)(=O)O)C(OC3OC(CO)C(O)C(OC4(C(=O)O)CC(O)C(NC(C)=O)C(C(O)C(O)CO)O4)C3O)C(OC3OC(C)C(O)C(O)C3O)C2NC(C)=O)C(O)C(OC2OC(CO)C(O)C(O)C2O)C1NC(C)=O (stereo not drawn)	Rat recombinant α2,3(O)ST (Rattus norvegicus)	7.4
CC(=O)NC1C(OC2C(O)C(CO)OC(OC3C(CO)OC(OCc4ccccc4)C(NC(C)=O)C3O)C2O)OC(CO)C(OC2OC(CO)C(O)C(O)C2O)C1O (stereo not drawn)	Rat recombinant α2,3(O)ST (Rattus norvegicus)	8.7
CO[C@H]1[C@H](O[C@H]2[C@H](O)[C@@H](NC(C)=O)C(O)O[C@@H]2CO)O[C@H](CO)[C@H](O)[C@@H]1O (stereo partly drawn)	Rat recombinant α2,3(O)ST (Rattus norvegicus)	0.2
CO[C@H]1O[C@H](CO[C@@H]2O[C@H](COS(=O)(=O)O)[C@@H](O[C@@H]3O[C@H](CO)[C@H](O)[C@H](O)[C@H]3O)[C@H](O)[C@H]2NC(C)=O)[C@H](O)[C@H](O[C@@H]2O[C@H](CO)[C@H](O)[C@H](O)[C@H]2O)[C@H]1NC(C)=O	Rat recombinant α2,3(O)ST (Rattus norvegicus)	27.2
